The entries below come with measured self-cleavage kobs at 10000 uM GlcN6P values attached.
B1: glmS ribozyme (parent)
chain: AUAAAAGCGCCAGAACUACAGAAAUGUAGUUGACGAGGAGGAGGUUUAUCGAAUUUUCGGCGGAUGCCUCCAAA

Variants of: B1
measurement protocol: self-cleavage kobs at 10000 uM GlcN6P; higher = faster cleavage; RNA array
conditions used: with glucosamine-6-phosphate
This sample holds only a part of the variants without activity.
I only need the number, in s⁻¹, no unit after it.

Sample answers from the record:
1. A12G A52G :: 2.49e-05
2. G32C C58G :: 6.81e-05
3. A14C U31G :: 0.0194
4. A12G C58A C70G :: 3.02e-05
5. U47C A64U :: 0.000102

Query :: GET /values?readout=self-cleavage kobs at 10000 uM GlcN6P&item= A15C U30G
Result :: 0.153

Query :: GET /values?readout=self-cleavage kobs at 10000 uM GlcN6P&item= U30A G41U
Result :: 0.000117

Query :: GET /values?readout=self-cleavage kobs at 10000 uM GlcN6P&item= U45C C68G
Result :: 8.34e-05

Query :: GET /values?readout=self-cleavage kobs at 10000 uM GlcN6P&item= A39C G66C
Result :: 0.0012

Query :: GET /values?readout=self-cleavage kobs at 10000 uM GlcN6P&item= U47G U65G
Result :: 0.0021

Query :: GET /values?readout=self-cleavage kobs at 10000 uM GlcN6P&item= G21U U30A
Result :: 0.00354

Query :: GET /values?readout=self-cleavage kobs at 10000 uM GlcN6P&item= A12G A39C
Result :: 0.00022
